Hey, just so you know, these numbers are from paper PMC10786891.

TARGET: T1, EsCas13d, nuclease-dead (Eubacterium siraeum, UniProt B0MS50, R295A;H300A;R849A;H854A)
T1 sequence: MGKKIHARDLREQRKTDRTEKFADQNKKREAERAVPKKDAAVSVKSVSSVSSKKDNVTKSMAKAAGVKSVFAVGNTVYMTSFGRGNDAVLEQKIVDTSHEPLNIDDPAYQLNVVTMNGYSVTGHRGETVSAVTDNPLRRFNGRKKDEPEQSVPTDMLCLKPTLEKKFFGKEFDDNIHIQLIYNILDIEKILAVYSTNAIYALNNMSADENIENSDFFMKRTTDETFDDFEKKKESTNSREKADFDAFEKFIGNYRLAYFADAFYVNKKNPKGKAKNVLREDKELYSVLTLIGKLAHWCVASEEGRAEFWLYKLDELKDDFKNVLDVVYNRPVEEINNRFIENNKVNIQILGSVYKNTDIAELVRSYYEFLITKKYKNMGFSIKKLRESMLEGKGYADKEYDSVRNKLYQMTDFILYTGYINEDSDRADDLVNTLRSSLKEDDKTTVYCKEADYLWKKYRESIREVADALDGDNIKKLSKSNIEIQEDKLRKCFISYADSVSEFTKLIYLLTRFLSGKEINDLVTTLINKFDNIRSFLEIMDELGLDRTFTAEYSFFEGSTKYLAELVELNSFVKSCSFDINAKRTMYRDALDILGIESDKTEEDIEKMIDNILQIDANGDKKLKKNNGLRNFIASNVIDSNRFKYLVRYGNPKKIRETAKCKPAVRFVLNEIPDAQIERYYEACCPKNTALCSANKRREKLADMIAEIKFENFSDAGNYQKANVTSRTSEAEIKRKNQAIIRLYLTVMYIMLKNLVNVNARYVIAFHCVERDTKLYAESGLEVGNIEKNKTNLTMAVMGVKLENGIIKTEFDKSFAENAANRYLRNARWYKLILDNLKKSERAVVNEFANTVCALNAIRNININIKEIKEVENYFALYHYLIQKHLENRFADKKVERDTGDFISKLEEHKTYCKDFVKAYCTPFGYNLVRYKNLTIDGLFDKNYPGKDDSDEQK
TEST_DETAILS: crRNA (strand 1, pre-loaded); Mg2+; 40 mM Tris-HCl pH 7.5, 150 mM NaCl, 6 mM MgCl2, 1 mM DTT, 0.1% Tween-20, 0.2 mg/ml BSA; 25 C; 10 min per concentration, then washed
REPORTED_CONDITIONS: tags: His6-TwinStrep-SUMO cleaved; N-terminal SNAP kept (SNAP-Surface 488); label: 3' end held by stalled T7 RNA polymerase
PARAMETER: pKd
For clarity, pKd is expressed as the negative log10 of concentration in mol/L.

Illustrative cases are given below, each with its answer.
>>> assay_value("target 1 U10G,G12C (mixed) RNA 1: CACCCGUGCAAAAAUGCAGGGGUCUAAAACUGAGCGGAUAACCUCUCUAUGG RNA 2: GGGAAUGGAUCCACAUCUACGAAUUCGUACCAUAGAGAGCUGAUCCGCUCACCGAGAUCGGAAGAGCACACGU")
7.64
>>> assay_value("target 2 MT 5'PFS GAU 3'PFS UCA (mixed) RNA 1: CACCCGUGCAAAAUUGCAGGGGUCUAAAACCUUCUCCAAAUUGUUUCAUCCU RNA 2: GGGAAUGGAUCCACAUCUACGAAUUCGAUAGGAUGAAACAAUUUGGAGAAGUCAAGAUCGGAAGAGCACACGU")
7.68
>>> assay_value("target 2 MT 5'PFS UAU 3'PFS AUC (mixed) RNA 1: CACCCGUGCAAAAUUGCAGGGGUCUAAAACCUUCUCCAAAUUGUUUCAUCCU RNA 2: GGGAAUGGAUCCACAUCUACGAAUUCUAUAGGAUGAAACAAUUUGGAGAAGAUCAGAUCGGAAGAGCACACGU")
7.28

Now consider a different binder.
Field request: pKd | item: target 1 C7A,U10C (mixed) RNA 1: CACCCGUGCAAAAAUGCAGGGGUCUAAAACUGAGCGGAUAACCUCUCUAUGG RNA 2: GGGAAUGGAUCCACAUCUACGAAUUCGUACCAUAGAGAGGUCAUACGCUCACCGAGAUCGGAAGAGCACACGU
7.87
